Exercise: for every item that follows, state its recorded viability, T/C.
# Test system: 349418-098-R-PDC complex spheroid viability
# assay-comment: Anticancer human tumor 349418-098-R-PDC patient-derived lung adenocarcinoma cell line growth inhibition [RAS]
# conditions: second compound 0.3 µM; first compound 1 µM; stronger effect = lower value

Exercise: I would be grateful if you could share the reported viability, T/C for C[C@@H](NC(=O)c1ncnc(N)c1Cl)c1ncc(C(=O)Nc2cc(C(F)(F)F)c(Cl)cn2)s1 + CCn1c(-c2cccnc2C(C)OC)c2c3cc(ccc31)N1CCOC(CC(NC(=O)C(C(C)C)N(C)C(=O)C3(F)CCN(C(=O)C#CC(C)(C)N(C)C)CC3)C(=O)N3CCCC(N3)C(=O)OCC(C)(C)C2)C1 .
Solution: 57.4%

Exercise: Record: CC(C)NCC(C(=O)N1CCN(c2ncnc3c2C(C)CC3O)CC1)c1ccc(Cl)cc1 (centres undefined) + CCn1c(-c2cccnc2C(C)OC)c2c3cc(ccc31)N1CCOC(CC(NC(=O)C(C(C)C)N(C)C(=O)C3(F)CCN(C(=O)C#CC(C)(C)N(C)C)CC3)C(=O)N3CCCC(N3)C(=O)OCC(C)(C)C2)C1
Solution: 34.3%

Exercise: Also CC(=O)OC12COC1CC(O)C1(C)C(=O)C(O)C3=C(C)C(OC(=O)C(O)C(NC(=O)OC(C)(C)C)c4ccccc4)CC(O)(C(OC(=O)c4ccccc4)C21)C3(C)C (centres undefined) + CCn1c(-c2cc(N3CCN(C)CC3)cnc2C(C)OC)c2c3cc(ccc31)-c1csc(n1)CC(NC(=O)C1CC1C)C(=O)N1CCCC(N1)C(=O)OCC(C)(C)C2 , if possible.
Solution: 16.8%

Exercise: Next molecule up: C=CC(=O)N1CCN(c2nc(OCC3CCCN3C)nc3c(F)c(-c4nc(N)cc(C)c4C(F)(F)F)c(Cl)cc23)C(C)C1 (centres undefined) + CCn1c(-c2cc(N3CCN(C)CC3)cnc2C(C)OC)c2c3cc(ccc31)-c1csc(n1)CC(NC(=O)C1CC1C)C(=O)N1CCCC(N1)C(=O)OCC(C)(C)C2
Solution: 90.5%

---

I'd be grateful if you could share measured viability, T/C for these entries.
# Test system: 349418-098-R-PDC complex spheroid viability
# assay-comment: Anticancer human tumor 349418-098-R-PDC cell line growth inhibition [RAS];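 also: spheroids exposed to compound for seven days before viability readout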
# conditions: second compound 3.16 µM; first compound 0.1 µM; stronger effect = lower value
The response must be a number in % with no trailing unit.

Exercise: Please report the recorded viability, T/C for Nc1ccn(C2OC(CO)C(O)C2(F)F)c(=O)n1 (stereo not given) + C#Cc1c(F)ccc2cc(O)cc(-c3ncc4c(N5CC6CCC(C5)N6)nc(OCC56CCCN5CC(F)C6)nc4c3F)c12 .
Solution: 7.51

Exercise: Try the compound CCC(CC)c1cc(NC2CCC(N)C2)n2nccc2n1 (stereo not given) + C#Cc1c(F)ccc2cc(O)cc(-c3ncc4c(N5CC6CCC(C5)N6)nc(OCC56CCCN5CC(F)C6)nc4c3F)c12
Solution: 97.5

Exercise: Here is the next compound: C=CC(=O)N1CCN(c2nc(OCC3CCCN3C)nc3c(F)c(-c4nc(N)cc(C)c4C(F)(F)F)c(Cl)cc23)C(C)C1 (stereo not given) + C#Cc1c(F)ccc2cc(O)cc(-c3ncc4c(N5CC6CCC(C5)N6)nc(OCC56CCCN5CC(F)C6)nc4c3F)c12
Solution: 73.3

Exercise: Ok, now CC(=O)OC12COC1CC(O)C1(C)C(=O)C(O)C3=C(C)C(OC(=O)C(O)C(NC(=O)OC(C)(C)C)c4ccccc4)CC(O)(C(OC(=O)c4ccccc4)C21)C3(C)C (stereo not given) + C#Cc1c(F)ccc2cc(O)cc(-c3ncc4c(N5CC6CCC(C5)N6)nc(OCC56CCCN5CC(F)C6)nc4c3F)c12
Solution: 17.9

Exercise: Same read-out for C=CC(=O)Nc1cc(Nc2nccc(-c3cn(C)c4ccccc34)n2)c(OC)cc1N(C)CCN(C)C + C#Cc1c(F)ccc2cc(O)cc(-c3ncc4c(N5CC6CCC(C5)N6)nc(OCC56CCCN5CC(F)C6)nc4c3F)c12 ?
Solution: 82.8

Exercise: Please answer likewise for Cc1nc(N2CCC3(CC2)COC(C)C3N)c(CO)nc1Sc1ccnc(N)c1Cl (stereo not given) + C#Cc1c(F)ccc2cc(O)cc(-c3ncc4c(N5CC6CCC(C5)N6)nc(OCC56CCCN5CC(F)C6)nc4c3F)c12
Solution: 108

Exercise: And the next one, O=C(c1ccc(F)c(F)c1Nc1ccc(I)cc1F)N1CC(O)([C@@H]2CCCCN2)C1 + C#Cc1c(F)ccc2cc(O)cc(-c3ncc4c(N5CC6CCC(C5)N6)nc(OCC56CCCN5CC(F)C6)nc4c3F)c12 ?
Solution: 8.92

Exercise: Another compound to look at: CC(C)NCC(C(=O)N1CCN(c2ncnc3c2C(C)CC3O)CC1)c1ccc(Cl)cc1 (stereo not given) + C#Cc1c(F)ccc2cc(O)cc(-c3ncc4c(N5CC6CCC(C5)N6)nc(OCC56CCCN5CC(F)C6)nc4c3F)c12
Solution: 75.1

Exercise: What would you report for CCN1CCN(Cc2ccc(Nc3ncc(F)c(-c4cc(F)c5nc(C)n(C(C)C)c5c4)n3)nc2)CC1 + C#Cc1c(F)ccc2cc(O)cc(-c3ncc4c(N5CC6CCC(C5)N6)nc(OCC56CCCN5CC(F)C6)nc4c3F)c12 ?
Solution: 29.1

Exercise: And CC(C)n1nc(-c2ccc3oc(N)nc3c2)c2c(N)ncnc21 + C#Cc1c(F)ccc2cc(O)cc(-c3ncc4c(N5CC6CCC(C5)N6)nc(OCC56CCCN5CC(F)C6)nc4c3F)c12 ?
Solution: 8.95

---

For each of the compounds below, state its viability, T/C.
# System: 349418-098-R-PDC complex spheroid viability
# assay-comment: Anticancer human tumor 349418-098-R-PDC cell line growth inhibition [RAS];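 also: spheroids exposed to compound for seven days before viability readout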
# conditions: second compound 0.1 µM; first compound 3.16 µM; stronger effect = lower value
# Description: RAS pathway inhibitors in Combinations in Complex Spheroids A high-throughput screen of multi-cell type tumor spheroids was designed to identify active combinations of RAS pathway inhibitors and targeted small molecules. Complex spheroids include a stromal component modeled by human endothelial cells (HUVEC) and fibroblasts modeled by human mesenchymal stem cells (MSCs). […] Compounds. […] If the clinical Cmax for an agent had not been determined, the highest concentration tested was 10 microM. […]
All answers are understood in %, so give the number only.

Exercise: Report viability, T/C for CCC(CC)c1cc(NC2CCC(N)C2)n2nccc2n1 (stereo unspecified) + C=CC(=O)N1CCN(c2nc(OCC3CCCN3C)nc3c(F)c(-c4nc(N)cc(C)c4C(F)(F)F)c(Cl)cc23)C(C)C1 please.
Solution: 3.01

Exercise: Same again, this time with CC1(O)CCCC1n1c(=O)c(C(F)F)cc2cnc(NC3CCN(S(C)(=O)=O)CC3)nc21 (stereo unspecified) + C=CC(=O)N1CCN(c2nc(OCC3CCCN3C)nc3c(F)c(-c4nc(N)cc(C)c4C(F)(F)F)c(Cl)cc23)C(C)C1
Solution: 24.2

Exercise: Request: CC(Nc1ccc2c(c1)OCCn1cc(N3C(=O)OCC3C(F)F)nc1-2)C(N)=O (stereo unspecified) + C=CC(=O)N1CCN(c2nc(OCC3CCCN3C)nc3c(F)c(-c4nc(N)cc(C)c4C(F)(F)F)c(Cl)cc23)C(C)C1
Solution: 17.6

Exercise: And then CC(=O)OC12COC1CC(O)C1(C)C(=O)C(O)C3=C(C)C(OC(=O)C(O)C(NC(=O)OC(C)(C)C)c4ccccc4)CC(O)(C(OC(=O)c4ccccc4)C21)C3(C)C (stereo unspecified) + C=CC(=O)N1CCN(c2nc(OCC3CCCN3C)nc3c(F)c(-c4nc(N)cc(C)c4C(F)(F)F)c(Cl)cc23)C(C)C1 , what is it?
Solution: 24.3

Exercise: Now the compound CCC(CC)c1cc(NC2CCC(N)C2)n2nccc2n1 (stereo unspecified) + C#Cc1c(F)ccc2cc(O)cc(-c3ncc4c(N5CC6CCC(C5)N6)nc(OCC56CCCN5CC(F)C6)nc4c3F)c12
Solution: 2.89

Exercise: Same question, CC(Nc1ccc2c(c1)OCCn1cc(N3C(=O)OCC3C(F)F)nc1-2)C(N)=O (stereo unspecified) + C#Cc1c(F)ccc2cc(O)cc(-c3ncc4c(N5CC6CCC(C5)N6)nc(OCC56CCCN5CC(F)C6)nc4c3F)c12 this time
Solution: 12.7

---

# Tested on: 349418-098-R-PDC complex spheroid viability
# assay-comment: Anticancer human tumor 349418-098-R-PDC cell line growth inhibition [RAS];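 also: spheroids exposed to compound for seven days before viability readout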
# conditions: curve of first compound; second compound 0.1 µM
# Source text: RAS pathway inhibitors in Combinations in Complex Spheroids A high-throughput screen of multi-cell type tumor spheroids was designed to identify active combinations of RAS pathway inhibitors and targeted small molecules. Complex spheroids include a stromal component modeled by human endothelial cells (HUVEC) and fibroblasts modeled by human mesenchymal stem cells (MSCs). […] Compounds. […] If the clinical Cmax for an agent had not been determined, the highest concentration tested was 10 microM. […]
measured-attribute: pIC50
Bear in mind: pIC50 is minus log10 of a mol/L concentration; give just that figure.

Exercise: I'd like to know its pIC50. The molecule in question is CCN1CCN(Cc2ccc(Nc3ncc(F)c(-c4cc(F)c5nc(C)n(C(C)C)c5c4)n3)nc2)CC1 + C#Cc1c(F)ccc2cc(O)cc(-c3ncc4c(N5CC6CCC(C5)N6)nc(OCC56CCCN5CC(F)C6)nc4c3F)c12
Solution: 7.52

Exercise: Similarly, CCC(CC)c1cc(NC2CCC(N)C2)n2nccc2n1 (stereo not given) + C#Cc1c(F)ccc2cc(O)cc(-c3ncc4c(N5CC6CCC(C5)N6)nc(OCC56CCCN5CC(F)C6)nc4c3F)c12 ?
Solution: 6.09

Exercise: Another: CC(C)NCC(C(=O)N1CCN(c2ncnc3c2C(C)CC3O)CC1)c1ccc(Cl)cc1 (stereo not given) + C#Cc1c(F)ccc2cc(O)cc(-c3ncc4c(N5CC6CCC(C5)N6)nc(OCC56CCCN5CC(F)C6)nc4c3F)c12
Solution: 6.24

Exercise: Okay, and CCc1c2c(nc3ccc(O)cc13)-c1cc3c(c(=O)n1C2)COC(=O)[C@]3(O)CC + C=CC(=O)N1CCN(c2nc(OCC3CCCN3C)nc3c(F)c(-c4nc(N)cc(C)c4C(F)(F)F)c(Cl)cc23)C(C)C1 ?
Solution: 9.01

Exercise: # repeat for C[C@@H](NC(=O)c1ncnc(N)c1Cl)c1ncc(C(=O)Nc2cc(C(F)(F)F)c(Cl)cn2)s1 + C=CC(=O)N1CCN(c2nc(OCC3CCCN3C)nc3c(F)c(-c4nc(N)cc(C)c4C(F)(F)F)c(Cl)cc23)C(C)C1
Solution: 5.66

Exercise: Thanks! And CC(C)n1nc(-c2ccc3oc(N)nc3c2)c2c(N)ncnc21 + C=CC(=O)N1CCN(c2nc(OCC3CCCN3C)nc3c(F)c(-c4nc(N)cc(C)c4C(F)(F)F)c(Cl)cc23)C(C)C1 ?
Solution: 8.40

Exercise: // next record CCN1CCN(Cc2ccc(Nc3ncc(F)c(-c4cc(F)c5nc(C)n(C(C)C)c5c4)n3)nc2)CC1 + C=CC(=O)N1CCN(c2nc(OCC3CCCN3C)nc3c(F)c(-c4nc(N)cc(C)c4C(F)(F)F)c(Cl)cc23)C(C)C1
Solution: 7.95

Exercise: Item: CC1(O)CCCC1n1c(=O)c(C(F)F)cc2cnc(NC3CCN(S(C)(=O)=O)CC3)nc21 (stereo not given) + C#Cc1c(F)ccc2cc(O)cc(-c3ncc4c(N5CC6CCC(C5)N6)nc(OCC56CCCN5CC(F)C6)nc4c3F)c12
Solution: 7.09
